- Tested on: Streptococcus sp.
- assay.overview: in vitro antibacterial evaluation, MIC by broth dilution
- Format: cell-based
- test.conditions: broth dilution, inoculum 5×10^5 CFU/mL, 18 hours at 35° C.; strain GC 4565
parameter.measured: MIC Streptococcus pneumoniae (GC 4565) (µg/mL)
Express the result in µg/mL but write the number alone.

Request: Record request: MIC Streptococcus pneumoniae (GC 4565) value, item CC(c1ccccc1)C1NC(=O)CNC(=O)C(CO)NC(=O)C(C(O)C2CN(c3ncccn3)C(=N)N2C2OC(CO)C(O)C(O)C2O)NC(=O)C(C(O)C2CNC(=Nc3ncccn3)N2)NC(=O)C(Cc2ccc(OC3OC(CO)C(OC4OC5COC6(OC5C(O)C4O)C4CC5CC(C4)CC6C5)C(O)C3O)cc2)NC1=O (stereo not shown)
Result: 8

Request: Try this compound next: CC(C)CC(=O)OC1C(O)C(OC2C(CO)OC(Oc3ccc(CC4NC(=O)C(C(C)c5ccccc5)NC(=O)CNC(=O)C(CO)NC(=O)C(C(O)C5CNC(=N)N5C5OC(CO)C(O)C(O)C5O)NC(=O)C(C(O)C5CNC(=N)N5)NC4=O)cc3)C(O)C2O)OC2COC3(OC21)C1CC2CC(C1)CC3C2 (stereo not shown)
Result: 0.12

====

Please provide measured MIC Streptococcus pneumoniae (ATCC 6301) for the entries that follow.
- Test system: Streptococcus sp.
- assay.overview: in vitro antibacterial evaluation, MIC by broth dilution
- Assay type: cell-based
- test.conditions: strain ATCC 6301; broth dilution, 18 hours at 35° C.

Request: Name the reported MIC Streptococcus pneumoniae (ATCC 6301) value associated with the molecule CC(C)=CCCC(C)=CCOc1ccc(C2OCC3OC(OC4C(CO)OC(Oc5ccc(CC6NC(=O)C(C(C)c7ccccc7)NC(=O)CNC(=O)C(CO)NC(=O)C(C(O)C7CNC(=N)N7C7OC(CO)C(O)C(O)C7O)NC(=O)C(C(O)C7CNC(=N)N7)NC6=O)cc5)C(O)C4O)C(O)C(O)C3O2)cc1 (stereo not shown) [Example 183]
Result: <0.06 µg/mL

Request: Follow-up entry: Cc1ccc(Oc2ccc(C3OCC4OC(OC5C(CO)OC(Oc6ccc(CC7NC(=O)C(C(C)c8ccccc8)NC(=O)CNC(=O)C(CO)NC(=O)C(C(O)C8CNC(=N)N8C8OC(CO)C(O)C(O)C8O)NC(=O)C(C(O)C8CNC(=N)N8)NC7=O)cc6)C(O)C5O)C(O)C(O)C4O3)cc2)cc1 (stereo not shown) [Example 174]
Result: <0.06 µg/mL

Request: And what about the molecule CC(c1ccccc1)C1NC(=O)CNC(=O)C(CO)NC(=O)C(C(O)C2CNC(=N)N2C2OC(CO)C(O)C(O)C2O)NC(=O)C(C(O)C2CNC(=N)N2)NC(=O)C(Cc2ccc(OC3OC(CO)C(OC4OC5COC(c6ccc7ccccc7c6)OC5C(O)C4O)C(O)C3O)cc2)NC1=O (stereo not shown) [Example 145] ?
Result: <0.5 µg/mL

Request: Now give it for CC(c1ccccc1)C1NC(=O)CNC(=O)C(CO)NC(=O)C(C(O)C2CNC(=N)N2C2OC(CO)C(O)C(O)C2O)NC(=O)C(C(O)C2CNC(=N)N2)NC(=O)C(Cc2ccc3oc(-c4ccc(N(C)C)cc4)nc3c2)NC1=O (stereo not shown) [Example 29] too.
Result: 32 µg/mL

====

- Tested on: Enterococcus sp.
- assay.overview: in vitro antibacterial evaluation, MIC by broth dilution
- Format: cell-based
- test.conditions: strain GC 3059; broth dilution, 18 hours at 35° C.
Exercise: state measured MIC Enterococcus faecalis (GC 3059) for each of the molecules provided.
All answers are understood in µg/mL, so give the number only.

Request: MIC Enterococcus faecalis (GC 3059) for CC(c1ccccc1)C1NC(=O)CNC(=O)C(CO)NC(=O)C(C(O)C2CNC(=N)N2C2OC(CO)C(O)C(O)C2O)NC(=O)C(C(O)C2CNC(=N)N2)NC(=O)C(Cc2ccc(OC3OC(CO)C(OC4OC5COC(c6cccc(Cl)c6)OC5C(O)C4O)C(O)C3O)cc2)NC1=O (stereo not shown) ?
Result: 4

Request: What do we get for CC(c1ccccc1)C1NC(=O)CNC(=O)C(CO)NC(=O)C(C(O)C2CNC(=N)N2C2OC(CO)C(O)C(O)C2O)NC(=O)C(C(O)C2CNC(=N)N2)NC(=O)C(Cc2ccc(OC3OC(CO)C(OC4OC5COC(c6ccc(Oc7ccc(C(C)(C)C)cc7)cc6)OC5C(O)C4O)C(O)C3O)cc2)NC1=O (stereo not shown) ?
Result: 4

Request: Okay, and CC(c1ccccc1)C1NC(=O)CNC(=O)C(CO)NC(=O)C(C(O)C2CNC(=N)N2C2OC(CO)C(O)C(O)C2O)NC(=O)C(C(O)C2CNC(=N)N2)NC(=O)C(Cc2ccc3oc(-c4cccc(F)c4)nc3c2)NC1=O (stereo not shown) ?
Result: 64

Request: Same thing, different molecule: COc1ccc(Oc2cccc(C3OCC4OC(OC5C(CO)OC(Oc6ccc(CC7NC(=O)C(C(C)c8ccccc8)NC(=O)CNC(=O)C(CO)NC(=O)C(C(O)C8CNC(=N)N8C8OC(CO)C(O)C(O)C8O)NC(=O)C(C(O)C8CNC(=N)N8)NC7=O)cc6)C(O)C5O)C(O)C(O)C4O3)c2)cc1 (stereo not shown)
Result: 2

Request: Can you handle CC(c1ccccc1)C1NC(=O)CNC(=O)C(CO)NC(=O)C(C(O)C2CNC(=N)N2C2OC(CO)C(O)C(O)C2O)NC(=O)C(C(O)C2CNC(=N)N2)NC(=O)C(Cc2ccc3oc(SCC(=O)c4ccccc4)nc3c2)NC1=O (stereo not shown) next?
Result: 64

====

- System: Enterococcus sp.
- assay.overview: in vitro antibacterial evaluation, MIC by broth dilution
- Type: cell-based
- test.conditions: broth dilution, inoculum 5×10^5 CFU/mL, 18 hours at 35° C.; strain GC 4552
parameter.measured: MIC Enterococcus faecalis (GC 4552) (µg/mL)
The reply should contain only the number, in µg/mL.

Request: So what does the record say about MIC Enterococcus faecalis (GC 4552) for CC(=O)n1cc(C2OCC3OC(OC4C(CO)OC(Oc5ccc(CC6NC(=O)C(C(C)c7ccccc7)NC(=O)CNC(=O)C(CO)NC(=O)C(C(O)C7CNC(=N)N7C7OC(CO)C(O)C(O)C7O)NC(=O)C(C(O)C7CNC(=N)N7)NC6=O)cc5)C(O)C4O)C(O)C(O)C3O2)c2ccccc21 (centres unmarked) [Example 161] ?
Result: 16

Request: Now the same for Cc1ccc(Oc2ccc(C3OCC4OC(OC5C(CO)OC(Oc6ccc(CC7NC(=O)C(C(C)c8ccccc8)NC(=O)CNC(=O)C(CO)NC(=O)C(C(O)C8CNC(=N)N8C8OC(CO)C(O)C(O)C8O)NC(=O)C(C(O)C8CNC(=N)N8)NC7=O)cc6)C(O)C5O)C(O)C(O)C4O3)cc2)cc1 (centres unmarked) [Example 174]
Result: 1

Request: Try the compound CC(C)=CCN1CC(C(O)C2NC(=O)C(C(O)C3CNC(=N)N3)NC(=O)C(Cc3ccc(OC4OC(CO)C(OC5OC6COC7(OC6C(O)C5O)C5CC6CC(C5)CC7C6)C(O)C4O)cc3)NC(=O)C(C(C)c3ccccc3)NC(=O)CNC(=O)C(CO)NC2=O)N(C2OC(CO)C(O)C(O)C2O)C1=N (centres unmarked) [Example 225]
Result: 8

Request: Entry CC(c1ccccc1)C1NC(=O)CNC(=O)C(CO)NC(=O)C(C(O)C2CNC(=N)N2C2OC(CO)C(O)C(O)C2O)NC(=O)C(C(O)C2CNC(=N)N2)NC(=O)C(Cc2ccc(OC3OC(CO)C(OC4OC5COC6(CCCCCCCCCCCC6)OC5C(O)C4O)C(O)C3O)cc2)NC1=O (centres unmarked) [Example 210] please
Result: 32

Request: Can you check CC(c1ccccc1)C1NC(=O)CNC(=O)C(CO)NC(=O)C(CC2CNC(=N)N2C2OC(CO)C(O)C(O)C2O)NC(=O)C(CC2CNC(=N)N2)NC(=O)C(Cc2ccc(OC3OC(CO)C(OC4OC5COC6(OC5C(O)C4O)C4CC5CC(C4)CC6C5)C(O)C3O)cc2)NC1=O (centres unmarked) [Example 219] next?
Result: 8

Request: Same read-out for CC(c1ccccc1)C1NC(=O)CNC(=O)C(CO)NC(=O)C(C(O)C2CNC(=N)N2C2OC(CO)C(O)C(O)C2O)NC(=O)C(C(O)C2CNC(=N)N2)NC(=O)C(Cc2ccc(OC3OC(CO)C(OC4OC5COC(C)(c6ccc(F)cc6)OC5C(O)C4O)C(O)C3O)cc2)NC1=O (centres unmarked) [Example 216] ?
Result: 4

Request: Same thing, different compound: CC(c1ccccc1)C1NC(=O)CNC(=O)C(CO)NC(=O)C(C(O)C2CNC(=N)N2C2OC(CO)C(O)C(O)C2O)NC(=O)C(C(O)C2CNC(=N)N2)NC(=O)C(Cc2ccc(OC3OC(CO)C(OC4OC(CO)C(OCc5ccc(OCc6ccccc6)cc5)C(O)C4O)C(O)C3O)cc2)NC1=O (centres unmarked) [Example 231a]
Result: 4

Request: Here is the next compound: CC(c1ccccc1)C1NC(=O)CNC(=O)C(CO)NC(=O)C(C(O)C2CN(c3ncccn3)C(=N)N2C2OC(CO)C(O)C(O)C2O)NC(=O)C(C(O)C2CNC(=Nc3ncccn3)N2)NC(=O)C(Cc2ccc(OC3OC(CO)C(OC4OC5COC6(OC5C(O)C4O)C4CC5CC(C4)CC6C5)C(O)C3O)cc2)NC1=O (centres unmarked) [Example 228]
Result: 32

Request: Quick one: CC(c1ccccc1)C1NC(=O)CNC(=O)C(CO)NC(=O)C(C(O)C2CNC(=N)N2C2OC(CO)C(O)C(O)C2O)NC(=O)C(C(O)C2CNC(=N)N2)NC(=O)C(Cc2ccc(OC3OC(CO)C(OC4OC5COC6(OC5C(O)C4O)C4CCCC6CCC4)C(O)C3O)cc2)NC1=O (centres unmarked) [Example 212]
Result: 8

Request: Same question for CC(C1CCCCC1)C1NC(=O)CNC(=O)C(CO)NC(=O)C(C(O)C2CNC(=N)N2C2OC(CO)C(O)C(O)C2O)NC(=O)C(C(O)C2CNC(=N)N2)NC(=O)C(Cc2ccc(OC3OC(CO)C(OC4OC5COC(c6ccccc6)OC5C(O)C4O)C(O)C3O)cc2)NC1=O (centres unmarked) [Example 201] please.
Result: 1
